Reference source: patent US20150376269A1

# ASSAYED TARGET: T1, serum resistance-associated protein (SRA) from Trypanosoma brucei rhodesiense, recombinant SRA (SEQ ID NO: … (Trypanosoma brucei rhodesiense, UniProt O96637 31-274))
# T1 construct: also called SRA protein
# T1 sequence: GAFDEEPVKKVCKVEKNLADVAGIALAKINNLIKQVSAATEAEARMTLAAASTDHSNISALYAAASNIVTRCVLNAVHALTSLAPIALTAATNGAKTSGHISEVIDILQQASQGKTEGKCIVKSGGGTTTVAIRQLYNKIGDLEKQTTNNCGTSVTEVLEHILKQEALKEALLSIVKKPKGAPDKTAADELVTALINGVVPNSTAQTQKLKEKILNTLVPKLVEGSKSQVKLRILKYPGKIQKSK
# ASSAY PROCEDURE: SPR, mAb captured, 50 nM SRA, pH 4.5, 25C
Measured 50 nM SRA binding (RU), listed per entry.
In your response, the unit should come after the numeric value.

H1H10067P (antibody, V domains shown, Fully human antibody with human IgG1 Fc (prefix H1H)) VH: QVQLQESGPGLVKPSQTLSLTCIVSGGSISSGDYYWNWIRQHPGKGLEWIGDIYHSGDTYYNPSLKSRVTISLDTSKNQFSLKLSSLTAADTAVYYCARDRIVATGGGMDVWGQGTTVTVSS VL: DIQMTQSPSTLSASVGDRVTITCRASQSISSWLAWYQRKPGKAPNLLIYRSSSLESGVPSRFSGSGSGTEFTLTISSLQADDFVIYYCQQYNSYPYTFGQGTKLEIK : 85 RU
H2aM10201N (antibody, V domains shown, Chimeric antibody, human variable domains and mouse constant domains (mouse Fc, prefix H2aM); also called H2M10201N) VH: QVQLLESGGGVVQPGKSLRLSCVASGSIFSIYGMNWVRQAPGKGLEWVASVSSDGSAKFYADSVKGRFTISRDNSNDTLFLQMTSLRAEDTAVYYCAKTLWNYLFDSWGQGTLVTVSS VL: ENVLTQSPDTLSLSPGERATLSCRASQSITSNYLAWYQQKPGQTPRLLISFTSRRATGIPDRFSGSGSGTVFTLTISRLEPEDFAVYYCQQYGTSLTFGGGAKVEIR : 109 RU

Next item in the queue.
QUERY: Request the reported 50 nM SRA binding (RU) associated with H1H10027P (antibody, V domains shown, Fully human antibody with human IgG1 Fc (prefix H1H)) VH: EVQLVESGGALVQPGRSLTLSCAASGFTFDDYTMHWVRQTPGKGLEWVSGILWNSDNLVYADSVKGRFTISRDNAKNSLYLQMNSLRVEDTALYYCTKEIDYLTLGGNAFDVWGQGTMVTVSS VL: DIQMTQSPSTLSASVGDRITITCRASQNINYWLAWYQQKPGKAPKLLIYKASSLAGGVPSRFSGSGSGTDFTLTINSLQPDDFATYYCQKYNTYSLNFGGGTKVEIK
RESULT: 95 RU
